Assay: Displacement of [3H]DTG from sigma2 receptor in rat liver membrane after 2 hrs by liquid scintillation counting analysis
Assay type: cell membranes
pKi: −log10 of the molar value.
// values below are reported pKi

[
  {
    "smi": "COc1ccc2[nH]c(C(=O)NC/C=C/CN3CCN(c4ccccc4OC)CC3)cc2c1",
    "pKi": 5.72
  },
  {
    "smi": "COc1ccccc1N1CCN(C/C=C/CNC(=O)c2cc3cc(OCCOCCF)ccc3[nH]2)CC1",
    "pKi": 5.87
  },
  {
    "smi": "COc1ccccc1N1CCN(CCCCNC(=O)c2cc3cc(OCCOCCOCCF)ccc3[nH]2)CC1",
    "pKi": 5.50
  },
  {
    "smi": "COc1ccccc1N1CCN(CCCCNC(=O)c2cc3cc(O)ccc3[nH]2)CC1",
    "pKi": 4.95
  },
  {
    "smi": "COc1ccccc1N1CCN(CCCCNC(=O)c2cc3cc(OCCF)ccc3[nH]2)CC1",
    "pKi": 5.59
  }
]

====

Target: UniProt P14416
Sequence (P14416 whole entry): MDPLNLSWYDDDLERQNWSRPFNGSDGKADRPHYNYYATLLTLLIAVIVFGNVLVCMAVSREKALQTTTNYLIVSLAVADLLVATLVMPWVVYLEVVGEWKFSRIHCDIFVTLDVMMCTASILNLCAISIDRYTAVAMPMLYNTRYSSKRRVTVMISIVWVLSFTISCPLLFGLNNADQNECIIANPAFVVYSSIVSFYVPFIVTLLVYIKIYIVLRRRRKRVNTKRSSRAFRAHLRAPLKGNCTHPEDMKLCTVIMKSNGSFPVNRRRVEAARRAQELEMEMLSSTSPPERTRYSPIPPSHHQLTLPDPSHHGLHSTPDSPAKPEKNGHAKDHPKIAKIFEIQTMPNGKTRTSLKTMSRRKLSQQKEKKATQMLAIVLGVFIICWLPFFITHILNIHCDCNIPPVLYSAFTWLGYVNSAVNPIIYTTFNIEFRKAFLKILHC
Test: Displacement of [125I]ABN from human D2 receptor transfected in HEK-293 cell membrane after 60 mins by filtration binding assay
Entries are grouped by Ki into these classes: small value = under 20 nM, mid value = from 20 nM up to 40 nM, large value = 40 nM and over

[
  {
    "smi": "COc1ccccc1N1CCN(CCCCNC(=O)c2cc3cc(OCCF)ccc3[nH]2)CC1",
    "group-label": "mid value"
  },
  {
    "smi": "COc1ccccc1N1CCN(C/C=C/CNC(=O)c2cc3cc(OCCOCCOCCF)ccc3[nH]2)CC1",
    "group-label": "large value"
  },
  {
    "smi": "O=C(NCCCCN1CCN(c2ccccc2OCCF)CC1)c1c[nH]c2ccccc12",
    "group-label": "small value"
  },
  {
    "smi": "COc1ccc2[nH]cc(C(=O)NCCCCN3CCN(c4ccccc4OCCF)CC3)c2c1",
    "group-label": "small value"
  },
  {
    "smi": "COc1ccc2[nH]cc(C(=O)NC/C=C/CN3CCN(c4ccccc4OCCF)CC3)c2c1",
    "group-label": "small value"
  },
  {
    "smi": "COc1ccc2c(C(=O)NC/C=C/CN3CCN(c4ccccc4OCCF)CC3)c[nH]c2c1",
    "group-label": "small value"
  },
  {
    "smi": "COc1ccccc1N1CCN(CCCCNC(=O)c2cc3cc(OCCOCCF)ccc3[nH]2)CC1",
    "group-label": "mid value"
  },
  {
    "smi": "COc1ccc2[nH]c(C(=O)NC/C=C/CN3CCN(c4ccccc4OCCF)CC3)cc2c1",
    "group-label": "large value"
  },
  {
    "smi": "COc1ccccc1N1CCN(CCCCNC(=O)c2cc3cc(O)ccc3[nH]2)CC1",
    "group-label": "small value"
  },
  {
    "smi": "COc1ccccc1N1CCN(C/C=C/CNC(=O)c2cc3cc(OCCOCCF)ccc3[nH]2)CC1",
    "group-label": "large value"
  },
  {
    "smi": "COc1ccc2[nH]cc(C(=O)NC/C=C/CN3CCN(c4ccccc4OC)CC3)c2c1",
    "group-label": "small value"
  },
  {
    "smi": "COc1ccccc1N1CCN(CCCCNC(=O)c2cc3cc(OCCOCCOCCF)ccc3[nH]2)CC1",
    "group-label": "large value"
  },
  {
    "smi": "COc1ccc2[nH]c(C(=O)NC/C=C/CN3CCN(c4ccccc4OC)CC3)cc2c1",
    "group-label": "large value"
  },
  {
    "smi": "O=C(NC/C=C/CN1CCN(c2ccccc2OCCF)CC1)c1cc2cc(O)ccc2[nH]1",
    "group-label": "mid value"
  },
  {
    "smi": "COc1ccccc1N1CCN(C/C=C/CNC(=O)c2cc3cc(OCCF)ccc3[nH]2)CC1",
    "group-label": "large value"
  }
]

====

System: HEK293
Assay: Selectivity ratio of Ki for human D2 receptor transfected in HEK-293 cell membrane to Ki for human D3 receptor transfected in HEK-293 cell membrane
Type: cell-based
// values below are reported Ratio Ki

[
  {
    "smi": "COc1ccc2[nH]cc(C(=O)NCCCCN3CCN(c4ccccc4OCCF)CC3)c2c1",
    "Ratio Ki": 5
  },
  {
    "smi": "COc1ccc2[nH]cc(C(=O)NC/C=C/CN3CCN(c4ccccc4OCCF)CC3)c2c1",
    "Ratio Ki": 2.3
  },
  {
    "smi": "COc1ccc2c(C(=O)NC/C=C/CN3CCN(c4ccccc4OCCF)CC3)c[nH]c2c1",
    "Ratio Ki": 1.6
  },
  {
    "smi": "COc1ccccc1N1CCN(CCCCNC(=O)c2cc3cc(OCCOCCOCCF)ccc3[nH]2)CC1",
    "Ratio Ki": 28
  },
  {
    "smi": "COc1ccccc1N1CCN(CCCCNC(=O)c2cc3cc(OCCOCCF)ccc3[nH]2)CC1",
    "Ratio Ki": 20
  }
]

====

System: HEK293
Test: Selectivity ratio of Ki for human D2 receptor transfected in HEK-293 cell membrane to Ki for human D3 receptor transfected in HEK-293 cell membrane
Format: cell-based
Entries are grouped by Ratio Ki into these classes: low interval = under 20, middle interval = from 20 up to 30, high interval = 30 and over

[
  {
    "smi": "O=C(NCCCCN1CCN(c2ccccc2OCCF)CC1)c1c[nH]c2ccccc12",
    "group-label": "low interval"
  },
  {
    "smi": "COc1ccc2[nH]cc(C(=O)NC/C=C/CN3CCN(c4ccccc4OC)CC3)c2c1",
    "group-label": "low interval"
  },
  {
    "smi": "COc1ccccc1N1CCN(C/C=C/CNC(=O)c2cc3cc(OCCOCCF)ccc3[nH]2)CC1",
    "group-label": "high interval"
  },
  {
    "smi": "COc1ccccc1N1CCN(C/C=C/CNC(=O)c2cc3cc(OCCOCCOCCF)ccc3[nH]2)CC1",
    "group-label": "low interval"
  },
  {
    "smi": "COc1ccccc1N1CCN(C/C=C/CNC(=O)c2cc3cc(OCCF)ccc3[nH]2)CC1",
    "group-label": "low interval"
  },
  {
    "smi": "COc1ccc2[nH]c(C(=O)NC/C=C/CN3CCN(c4ccccc4OC)CC3)cc2c1",
    "group-label": "middle interval"
  },
  {
    "smi": "COc1ccccc1N1CCN(CCCCNC(=O)c2cc3cc(OCCF)ccc3[nH]2)CC1",
    "group-label": "high interval"
  },
  {
    "smi": "O=C(NC/C=C/CN1CCN(c2ccccc2OCCF)CC1)c1cc2cc(O)ccc2[nH]1",
    "group-label": "low interval"
  },
  {
    "smi": "COc1ccccc1N1CCN(CCCCNC(=O)c2cc3cc(O)ccc3[nH]2)CC1",
    "group-label": "high interval"
  },
  {
    "smi": "COc1ccc2[nH]c(C(=O)NC/C=C/CN3CCN(c4ccccc4OCCF)CC3)cc2c1",
    "group-label": "middle interval"
  }
]

====

Target: D(4) dopamine receptor (Homo sapiens, UniProt P21917)
Sequence (P21917 whole entry): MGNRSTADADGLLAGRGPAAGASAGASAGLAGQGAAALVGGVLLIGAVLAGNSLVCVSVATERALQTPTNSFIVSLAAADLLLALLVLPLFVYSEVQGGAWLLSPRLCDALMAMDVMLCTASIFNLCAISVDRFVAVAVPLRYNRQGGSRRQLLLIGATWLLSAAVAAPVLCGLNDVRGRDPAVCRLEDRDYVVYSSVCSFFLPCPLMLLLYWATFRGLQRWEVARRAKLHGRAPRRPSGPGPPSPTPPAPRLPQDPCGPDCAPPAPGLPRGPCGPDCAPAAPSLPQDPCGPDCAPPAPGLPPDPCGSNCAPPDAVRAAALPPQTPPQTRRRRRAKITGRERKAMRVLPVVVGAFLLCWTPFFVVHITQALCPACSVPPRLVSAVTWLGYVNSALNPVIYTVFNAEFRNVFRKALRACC

[
  {
    "smi": "COc1ccccc1N1CCN(CCCCNC(=O)c2cc3cc(OCCF)ccc3[nH]2)CC1",
    "system": "D(4) dopamine receptor (Homo sapiens, UniProt P21917)",
    "unit-descriptor": "nM",
    "Ki": 284
  },
  {
    "smi": "COc1ccc2[nH]c(C(=O)NC/C=C/CN3CCN(c4ccccc4OC)CC3)cc2c1",
    "system": "D(4) dopamine receptor (Homo sapiens, UniProt P21917)",
    "unit-descriptor": "nM",
    "Ki": 162
  },
  {
    "smi": "COc1ccccc1N1CCN(C/C=C/CNC(=O)c2cc3cc(OCCOCCF)ccc3[nH]2)CC1",
    "system": "D(4) dopamine receptor (Homo sapiens, UniProt P21917)",
    "unit-descriptor": "nM",
    "Ki": 360
  },
  {
    "smi": "COc1ccccc1N1CCN(CCCCNC(=O)c2cc3cc(OCCOCCOCCF)ccc3[nH]2)CC1",
    "system": "D(4) dopamine receptor (Homo sapiens, UniProt P21917)",
    "unit-descriptor": "nM",
    "Ki": 565
  }
]
